Test system: SF-295 CNS
assayDetails: NCI-60 one-dose screen, 48 h (100 = growth as untreated, 0 = no growth, -100 = all killed)
conditionSummary: 10 µM unless noted
About 83,000 compounds went through this panel and 20% of them were active in at least one assay; those are over-represented in the sample as a whole. Calls of active or inactive are those of the source. Rule for the calls: active = growth percent below 10; inactive = the rest.
# growth annotations

Known results for molecules:
# molecule, growth
measured = [
    ("O=C1COCCN1c1ccc(NCc2cn(Cc3ccccc3)c3ccccc23)cc1", "61.7% (inactive)"),
    ("C=CCCCCCCCCC(=O)OC(C)C", "98.8% (inactive)"),
    ("CCN(CC)c1ccc2cc(C(Nc3ccc(Cl)cc3)c3nnnn3C(C)(C)C)c(=O)oc2c1 (stereo not given)", "95.9% (inactive)"),
    ("COc1ccc(C(=O)CSc2nnc(-c3cc(-c4ccccc4)nc4ccccc34)o2)cc1", "102% (inactive)"),
]

Proceeding to the next molecule to report its growth.
In one line, give reported growth of the entry `COc1ccc(N(c2nc(-c3ccc([N+](=O)[O-])cc3)cs2)C(C)C)cc1` .
89.8% (inactive)

// data source = PubChem BioAssay (NCI)
